The measurements presented in this section are drawn from PubChem BioAssay (NCI).

# Tested on: RXF 393 renal
# Measurement Notes: NCI-60 one-dose screen, 48 h
# Condition Details: 10 µM unless noted
This is part of a sample that, as a whole, favours compounds with a hit. Of some 83,000 tested, about 20% had one in any assay. Activity calls are given as the source filed them. How the source made its calls: active means growth percent below 10; inactive means the rest.
Classes used: True for active, False for inactive

Compound	Study Target	Answer Label
CC1CCCCC[N+]12CCCC2 (centres undefined)	RXF 393 renal	False
CCCCCCCCCCC1OC(C)CC(C)O1 (centres undefined)	RXF 393 renal	False
COC(=O)[C@H](Cc1cn(C)cn1)NC(=O)[C@@H](NC(=O)Nc1cc(C(F)(F)F)cc(C(F)(F)F)c1)C(C)(C)C	RXF 393 renal	True
NCCCOc1cc(Cl)ccc1NC(=O)c1cc2ccccc2cc1OCCCN	RXF 393 renal	True
COc1cccc(CNC(=O)c2cccc(C3CC(=O)c4c(cc(OC)c(OC)c4OC)O3)c2)c1 (centres undefined)	RXF 393 renal	False
CCN(CC)CCCC(C)Nc1c(C)cnc2cc(Cl)c(C)cc12 (centres undefined)	RXF 393 renal	False
O=S(=O)(O)c1ccc2c(c1)Sc1cc(S(=O)(=O)O)ccc1O2	RXF 393 renal	False
O=C(CBr)OCc1ccc([N+](=O)[O-])o1	RXF 393 renal	False
CCN(CC)CCCNc1c2ccc(Cl)cc2nc2ccc(OC)cc12	RXF 393 renal	True
Cc1nn(-c2ccccc2)c(N)c1N=C1NC(=O)/C(=C/c2ccc(Cl)cc2)S1	RXF 393 renal	False
O=C1CCNC1	RXF 393 renal	False
COc1cccc(Cn2cc3c(c2)-c2oncc2CC3)c1	RXF 393 renal	True
COc1cccc(-c2cc(-c3cc4ccccc4oc3=O)nc(N)n2)c1	RXF 393 renal	False
CCC(CCCN1C(=O)c2ccccc2C1=O)Nc1cc(OC)cc2c(C)ccnc12 (centres undefined)	RXF 393 renal	True
COc1cc2ncnc(-n3ncc4cc(NC(=O)Nc5ccccc5)ccc43)c2cc1OC	RXF 393 renal	True
Nc1ccc(S(=O)(=O)c2ccc(NO)cc2)cc1	RXF 393 renal	False
COc1ccc2cnc(N)c(C#Cc3cc(C(=O)Nc4ccc(CN5CCN(C)CC5)c(C(F)(F)F)c4)cnc3C)c2c1	RXF 393 renal	True
CCCCCCCCCCCC(=O)OC(C)C(=O)Nc1ccccc1 (centres undefined)	RXF 393 renal	False
CC(=O)Nc1ccc(C(=O)/C=C/c2ccc(N(C)C)cc2)cc1	RXF 393 renal	False
O=c1oc2ccc3ccccc3c2cc1-c1ccnc2[nH]c(=S)[nH]c(=O)c12	RXF 393 renal	False
Br/C(=N\Nc1nn[nH]n1)c1ccccc1	RXF 393 renal	False
CC(C)(CNC1CCCCC1)OC(=O)c1ccccc1	RXF 393 renal	False
CCCCCCCCCCCCCCCCCC(=O)Nc1ccc(O)cc1	RXF 393 renal	False
Nc1nc(-c2cccc(Br)c2)cc(-c2cc3ccccc3oc2=O)n1	RXF 393 renal	False

====

# Tested on: NCI-H322M lung
# Measurement Notes: NCI-60 one-dose screen, 48 h (100 = growth as untreated, 0 = no growth, -100 = all killed)
# Condition Details: 10 µM unless noted
Compounds without any hit were thinned out: in the full panel of roughly 83,000, 20% have a hit.

Molecule	growth (%)
CCCCCCC(C(=O)OCC)(C(=O)OCC)C1CCCCCC1	96.6
c1cc[c]([Bi]([c]2ccccc2)[c]2ccccc2)cc1	88
COc1cccc(-c2cc(-c3cc4ccccc4oc3=O)nc(N)n2)c1	123
Cc1sc(NC(=O)c2ccc(C(C)(C)C)cc2)c(C(=O)O)c1C	97.3
COc1cc2cc3cc4cc(OC)c(OC)cc4c(C)[n+]3cc2cc1OC (tested in a mixture with another compound)	89.8
